Known % FXa, 25 nM Ab of a selection of binders
- TEST_SYSTEM: human Tissue Factor on MDA-MB-231 cells (human, UniProt P13726 33-295)
- PROTOCOL: cell-based or functional assay
Number in %, nothing else.

Before answering, review these 3 worked examples.
[
  {
    "BINDER": "5G9 (humanized TF8-5G9, CNTO 860) (antibody, V domains shown) VH: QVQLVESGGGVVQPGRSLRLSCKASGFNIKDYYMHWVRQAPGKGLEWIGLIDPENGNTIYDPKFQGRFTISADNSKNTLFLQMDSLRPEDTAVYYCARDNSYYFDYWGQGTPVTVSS VL: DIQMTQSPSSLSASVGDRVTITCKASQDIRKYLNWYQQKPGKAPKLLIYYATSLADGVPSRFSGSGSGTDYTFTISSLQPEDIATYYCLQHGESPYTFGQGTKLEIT",
    "REPORTED_RESULT": 33
  },
  {
    "BINDER": "54E (antibody, V domains shown, Human anti-TF IgG1) VH: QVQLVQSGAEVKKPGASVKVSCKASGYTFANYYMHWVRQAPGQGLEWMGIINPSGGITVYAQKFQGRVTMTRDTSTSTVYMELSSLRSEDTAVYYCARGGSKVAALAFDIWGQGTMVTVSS VL: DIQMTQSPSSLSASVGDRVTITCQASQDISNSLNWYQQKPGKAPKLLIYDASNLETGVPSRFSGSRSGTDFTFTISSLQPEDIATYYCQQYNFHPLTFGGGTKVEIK",
    "REPORTED_RESULT": 44
  },
  {
    "BINDER": "25G (antibody, human IgG1, kappa, V domains shown, Human anti-TF IgG1) VH: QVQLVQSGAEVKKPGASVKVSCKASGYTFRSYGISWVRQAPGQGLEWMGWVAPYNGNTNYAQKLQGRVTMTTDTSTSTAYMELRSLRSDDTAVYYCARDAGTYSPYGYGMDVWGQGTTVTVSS VL: DIQMTQSPSTLSASVGDRVTITCRASQSISSWLAWYQQKPGKAPKLLIYKASSLESGVPSRFSGSGSGTEFTLTISSLQPDDFATYYCQQFQSLPPFTFGGGTKVEIKR",
    "REPORTED_RESULT": 109
  }
]

For the next question, use this binder.
### Prompt Consider the binder shown here: 43D (antibody, V domains shown) VH: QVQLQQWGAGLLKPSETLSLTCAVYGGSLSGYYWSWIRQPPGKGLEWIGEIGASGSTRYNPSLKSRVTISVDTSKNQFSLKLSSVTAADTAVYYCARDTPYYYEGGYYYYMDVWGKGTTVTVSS VL: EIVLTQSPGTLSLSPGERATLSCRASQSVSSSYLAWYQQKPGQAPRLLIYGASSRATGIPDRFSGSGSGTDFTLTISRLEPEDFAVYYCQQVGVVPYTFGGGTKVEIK What is its recorded % FXa, 25 nM Ab?
### Response 109

Attribution: patent US20240166765A1
